# Test system: S. aureus DSM 20231
# EXPERIMENTAL PROTOCOL: Bliss interaction score (quartile over a dose matrix) (fitness difference); higher = more antagonism (negative = synergy)
Rule: Bliss interaction score under -0.03 gives n, otherwise y.

API: above_or_equal(metric=Bliss interaction score, cutoff=-0.03) for item CC[C@H]1OC(=O)[C@H](C)[C@@H](O[C@H]2C[C@@](C)(OC)[C@@H](O)[C@H](C)O2)[C@H](C)[C@@H](O[C@@H]2O[C@H](C)C[C@H](N(C)C)[C@H]2O)[C@](C)(OC)C[C@@H](C)C(=O)[C@H](C)[C@@H](O)[C@]1(C)O [Clarithromycin] + CO[C@H]1/C=C/O[C@@]2(C)Oc3c(C)c(O)c4c(O)c(c(/C=N/N5CCN(C)CC5)c(O)c4c3C2=O)NC(=O)/C(C)=C\C=C\[C@H](C)[C@H](O)[C@@H](C)[C@@H](O)[C@@H](C)[C@H](OC(C)=O)[C@@H]1C [Rifampicin] y

Entry CC(=O)O[C@H]1C[C@@]2(C)[C@@H](C[C@@H](O)[C@H]3[C@@]4(C)CC[C@@H](O)[C@@H](C)[C@@H]4CC[C@@]32C)/C1=C(\CCC=C(C)C)C(=O)O [Fusidic acid] + Oc1cc(Cl)ccc1Oc1ccc(Cl)cc1Cl [Triclosan] please y

Entry O=C(O[C@@H]1Cc2c(O)cc(O)cc2O[C@@H]1c1cc(O)c(O)c(O)c1)c1cc(O)c(O)c(O)c1 [EGCG] + CCC[C@@H]1C[C@@H](C(=O)N[C@@H]([C@H]2O[C@H](SC)[C@H](O)[C@@H](O)[C@H]2O)[C@@H](C)O)N(C)C1 [Lincomycin] please n

Entry N[C@@H]1CONC1=O [CycloserineD] + COc1cc(Cc2cnc(N)nc2N)cc(OC)c1OC [Trimethoprim] please n

Entry CCC[C@@H]1C[C@@H](C(=O)N[C@@H]([C@H]2O[C@H](SC)[C@H](O)[C@@H](O)[C@H]2O)[C@@H](C)O)N(C)C1 [Lincomycin] + Cc1cc(NS(=O)(=O)c2ccc(N)cc2)no1 [Sulfamethoxazol] please n

Entry C[C@@H](O)[C@H]1C(=O)N2C(C(=O)O)=C(SCCNC=N)C[C@H]12 [Imipenem] + Cc1cc(NS(=O)(=O)c2ccc(N)cc2)no1 [Sulfamethoxazol] please n

Entry CCC[C@@H]1C[C@@H](C(=O)N[C@@H]([C@H]2O[C@H](SC)[C@H](O)[C@@H](O)[C@H]2O)[C@@H](C)O)N(C)C1 [Lincomycin] + COc1c(N2C[C@@H]3CCCN[C@@H]3C2)c(F)cc2c(=O)c(C(=O)O)cn(C3CC3)c12 [Moxifloxacin] please y

Entry O=C(O[C@@H]1Cc2c(O)cc(O)cc2O[C@@H]1c1cc(O)c(O)c(O)c1)c1cc(O)c(O)c(O)c1 [EGCG] + C[n+]1ccc(-c2cc[n+](C)cc2)cc1 [Paraquat] please n

====

# System: B. subtilis 168
# EXPERIMENTAL PROTOCOL: fitness (endpoint OD595 vs no drug) (fraction); higher = more growth
# COND: first compound 0.0625 µg/mL; partner 2 µg/mL
Please go through the items and note down their fitness.
No unit in the answer, please; the number alone is enough.

Record request: fitness value, item CCC[C@@H]1C[C@@H](C(=O)N[C@@H]([C@H]2O[C@H](SC)[C@H](O)[C@@H](O)[C@H]2O)[C@H](C)Cl)N(C)C1 [Clindamycin] + CN[C@@H]1[C@H](O[C@H]2[C@H](O[C@H]3[C@H](O)[C@@H](O)[C@H](N=C(N)N)[C@@H](O)[C@@H]3N=C(N)N)O[C@@H](C)[C@]2(O)C=O)O[C@@H](CO)[C@H](O)[C@H]1O [Streptomycin] 0.531

Entry COc1c(N2C[C@@H]3CCCN[C@@H]3C2)c(F)cc2c(=O)c(C(=O)O)cn(C3CC3)c12 [Moxifloxacin] + CN[C@@H]1[C@H](O)[C@H](NC)[C@H]2O[C@@]3(O)C(=O)C[C@@H](C)O[C@H]3O[C@@H]2[C@H]1O [Spectinomycin] please 0.0414

Entry CCC[C@@H]1C[C@@H](C(=O)N[C@@H]([C@H]2O[C@H](SC)[C@H](O)[C@@H](O)[C@H]2O)[C@H](C)Cl)N(C)C1 [Clindamycin] + CO/N=C(\C(=O)N[C@@H]1C(=O)N2C(C(=O)O)=C(COC(C)=O)CS[C@H]12)c1csc(N)n1 [Cefotaxime] please 0.0865

Entry COc1c(N2C[C@@H]3CCCN[C@@H]3C2)c(F)cc2c(=O)c(C(=O)O)cn(C3CC3)c12 [Moxifloxacin] + CN[C@@H]1[C@H](O[C@H]2[C@H](O[C@H]3[C@H](O)[C@@H](O)[C@H](N=C(N)N)[C@@H](O)[C@@H]3N=C(N)N)O[C@@H](C)[C@]2(O)C=O)O[C@@H](CO)[C@H](O)[C@H]1O [Streptomycin] please 0.0428

====

# Tested on: S. pneumoniae D39V
# EXPERIMENTAL PROTOCOL: Bliss interaction score (quartile over a dose matrix) (fitness difference); higher = more antagonism (negative = synergy)
Please go through the items and note down their Bliss interaction score.
No unit in the answer, please; the number alone is enough.

Record request: Bliss interaction score value, item CC(=O)OC[C@H]1O[C@@H]([S-])[C@H](OC(C)=O)[C@@H](OC(C)=O)[C@@H]1OC(C)=O.CCP(CC)CC.[Au+] [Auranofin] + CC(=O)O[C@H]1C[C@@]2(C)[C@@H](C[C@@H](O)[C@H]3[C@@]4(C)CC[C@@H](O)[C@@H](C)[C@@H]4CC[C@@]32C)/C1=C(\CCC=C(C)C)C(=O)O [Fusidic acid] -0.0761

Entry CC[C@H]1OC(=O)[C@H](C)[C@@H](O[C@H]2C[C@@](C)(OC)[C@@H](O)[C@H](C)O2)[C@H](C)[C@@H](O[C@@H]2O[C@H](C)C[C@H](N(C)C)[C@H]2O)[C@](C)(OC)C[C@@H](C)C(=O)[C@H](C)[C@@H](O)[C@]1(C)O [Clarithromycin] + CCC[C@@H]1C[C@@H](C(=O)N[C@@H]([C@H]2O[C@H](SC)[C@H](O)[C@@H](O)[C@H]2O)[C@@H](C)O)N(C)C1 [Lincomycin] please 0.0426

Entry CCC[C@@H]1C[C@@H](C(=O)N[C@@H]([C@H]2O[C@H](SC)[C@H](O)[C@@H](O)[C@H]2O)[C@H](C)Cl)N(C)C1 [Clindamycin] + CCN(CC)CCOC(=O)c1ccc(N)cc1 [Procaine] please -0.11

====

# Tested on: B. subtilis 168
# EXPERIMENTAL PROTOCOL: Bliss interaction score (quartile over a dose matrix) (fitness difference); higher = more antagonism (negative = synergy)
Please go through the items and note down their Bliss interaction score.
No unit in the answer, please; the number alone is enough.

Record request: Bliss interaction score value, item C[C@@H](O)[C@H]1C(=O)N2C(C(=O)O)=C(SCCNC=N)C[C@H]12 [Imipenem] + COc1ccc(C[C@H](N)C(=O)N[C@H]2[C@@H](O)[C@H](n3cnc4c(N(C)C)ncnc43)O[C@@H]2CO)cc1 [Puromycin] 0.0681

Entry CC(=O)OC[C@H]1O[C@@H]([S-])[C@H](OC(C)=O)[C@@H](OC(C)=O)[C@@H]1OC(C)=O.CCP(CC)CC.[Au+] [Auranofin] + CC[C@H]1OC(=O)[C@H](C)[C@@H](O[C@H]2C[C@@](C)(OC)[C@@H](O)[C@H](C)O2)[C@H](C)[C@@H](O[C@@H]2O[C@H](C)C[C@H](N(C)C)[C@H]2O)[C@](C)(O)C[C@@H](C)C(=O)[C@H](C)[C@@H](O)[C@]1(C)O [Erythromycin] please 0.0564

Entry O=C(N[C@H](CO)[C@H](O)c1ccc([N+](=O)[O-])cc1)C(Cl)Cl [Chloramphenicol] + COc1c(N2C[C@@H]3CCCN[C@@H]3C2)c(F)cc2c(=O)c(C(=O)O)cn(C3CC3)c12 [Moxifloxacin] please 0.0443

Entry C/C(=C\C(=O)OCCCCCCCCC(=O)O)C[C@@H]1OC[C@H](C[C@@H]2O[C@H]2[C@@H](C)[C@H](C)O)[C@@H](O)[C@H]1O [Pseudomonic acid] + CC1=C\[C@@H](O)CC(=O)Cc2nc(co2)C(=O)N2CCC=C2C(=O)O[C@H](C(C)C)[C@H](C)/C=C/C(=O)NC\C=C\1 [Virginiamycin M1] please -0.0497

Entry C[C@@H](O)[C@H]1C(=O)N2C(C(=O)O)=C(SCCNC=N)C[C@H]12 [Imipenem] + Cc1cc(NS(=O)(=O)c2ccc(N)cc2)no1 [Sulfamethoxazol] please 0.0891

Entry CC[C@H]1OC(=O)[C@H](C)[C@@H](O[C@H]2C[C@@](C)(OC)[C@@H](O)[C@H](C)O2)[C@H](C)[C@@H](O[C@@H]2O[C@H](C)C[C@H](N(C)C)[C@H]2O)[C@](C)(OC)C[C@@H](C)C(=O)[C@H](C)[C@@H](O)[C@]1(C)O [Clarithromycin] + COc1cccc2c1C(=O)c1c(O)c3c(c(O)c1C2=O)C[C@@](O)(C(=O)CO)C[C@@H]3O[C@H]1C[C@H](N)[C@H](O)[C@H](C)O1 [Doxorubicin] please 0.0718

Entry O=C(N[C@H](CO)[C@H](O)c1ccc([N+](=O)[O-])cc1)C(Cl)Cl [Chloramphenicol] + CN(C)[C@@H]1C(O)=C(C(N)=O)C(=O)[C@@]2(O)C(O)=C3C(=O)c4c(O)ccc(Cl)c4[C@@](C)(O)[C@H]3C[C@@H]12 [Clortetracycline] please -0.117

Entry CC(=O)OC[C@H]1O[C@@H]([S-])[C@H](OC(C)=O)[C@@H](OC(C)=O)[C@@H]1OC(C)=O.CCP(CC)CC.[Au+] [Auranofin] + COc1c(N2C[C@@H]3CCCN[C@@H]3C2)c(F)cc2c(=O)c(C(=O)O)cn(C3CC3)c12 [Moxifloxacin] please 0.031

Entry N[C@@H]1CONC1=O [CycloserineD] + CO[C@@]12[C@H](COC(N)=O)C3=C(C(=O)C(C)=C(N)C3=O)N1C[C@@H]1N[C@@H]12 [MitomycinC] please 0.0912

Entry CC[C@H]1OC(=O)[C@H](C)[C@@H](O[C@H]2C[C@@](C)(OC)[C@@H](O)[C@H](C)O2)[C@H](C)[C@@H](O[C@@H]2O[C@H](C)C[C@H](N(C)C)[C@H]2O)[C@](C)(OC)C[C@@H](C)C(=O)[C@H](C)[C@@H](O)[C@]1(C)O [Clarithromycin] + CN[C@@H]1[C@H](O[C@H]2[C@H](O[C@H]3[C@H](O)[C@@H](O)[C@H](N=C(N)N)[C@@H](O)[C@@H]3N=C(N)N)O[C@@H](C)[C@]2(O)C=O)O[C@@H](CO)[C@H](O)[C@H]1O [Streptomycin] please 0.0553

Entry O=C1CN(/N=C/c2ccc([N+](=O)[O-])o2)C(=O)N1 [Nitrofurantoin] + C[n+]1ccc(-c2cc[n+](C)cc2)cc1 [Paraquat] please 0.0514

Entry O=C1CN(/N=C/c2ccc([N+](=O)[O-])o2)C(=O)N1 [Nitrofurantoin] + CN1C2=CC=CC=C2N=C3C1=CC=CC3=O [Pyocyanin] please 0.0805

Entry CC(=O)O[C@H]1C[C@@]2(C)[C@@H](C[C@@H](O)[C@H]3[C@@]4(C)CC[C@@H](O)[C@@H](C)[C@@H]4CC[C@@]32C)/C1=C(\CCC=C(C)C)C(=O)O [Fusidic acid] + C/C(=C\C(=O)OCCCCCCCCC(=O)O)C[C@@H]1OC[C@H](C[C@@H]2O[C@H]2[C@@H](C)[C@H](C)O)[C@@H](O)[C@H]1O [Pseudomonic acid] please -0.0331

Entry CC(=O)O[C@H]1C[C@@]2(C)[C@@H](C[C@@H](O)[C@H]3[C@@]4(C)CC[C@@H](O)[C@@H](C)[C@@H]4CC[C@@]32C)/C1=C(\CCC=C(C)C)C(=O)O [Fusidic acid] + COc1ccc(C[C@H](N)C(=O)N[C@H]2[C@@H](O)[C@H](n3cnc4c(N(C)C)ncnc43)O[C@@H]2CO)cc1 [Puromycin] please -0.045
